# System Under Test: human tau oligomers (human, UniProt P10636-6 2-383, limits assumed)
# Sequence (P10636 other isoform, or with tags, fused parts or gaps limits assumed): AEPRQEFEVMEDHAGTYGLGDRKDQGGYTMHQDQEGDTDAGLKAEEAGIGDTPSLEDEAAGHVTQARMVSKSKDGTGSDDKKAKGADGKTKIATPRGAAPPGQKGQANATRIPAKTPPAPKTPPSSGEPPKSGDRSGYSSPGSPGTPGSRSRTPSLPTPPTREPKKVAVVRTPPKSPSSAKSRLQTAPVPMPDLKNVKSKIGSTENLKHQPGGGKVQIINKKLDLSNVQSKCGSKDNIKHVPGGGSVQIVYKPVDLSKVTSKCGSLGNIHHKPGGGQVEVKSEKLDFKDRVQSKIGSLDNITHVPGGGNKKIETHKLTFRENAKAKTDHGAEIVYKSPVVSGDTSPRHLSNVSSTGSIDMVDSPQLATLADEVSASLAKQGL
# Assay Procedure: cell-based or functional assay
Measure Name: LDH released by primary neurons with tau oligomers, antibody at 5 molar equivs

{"Binder": "mouse 2D11 antibody (antibody, mouse IgG2a, V domains shown) VH: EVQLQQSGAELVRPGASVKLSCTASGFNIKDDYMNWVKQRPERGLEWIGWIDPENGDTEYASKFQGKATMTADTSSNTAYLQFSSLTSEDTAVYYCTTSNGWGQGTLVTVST VL: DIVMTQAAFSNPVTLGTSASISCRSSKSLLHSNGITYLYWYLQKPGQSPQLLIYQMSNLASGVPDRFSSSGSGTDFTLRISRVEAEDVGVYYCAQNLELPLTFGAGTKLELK", "Obs Value": "115 % of control"}
{"Binder": "mouse 12C4 antibody (antibody, mouse IgG2a, V domains shown, also called m12C4) VH: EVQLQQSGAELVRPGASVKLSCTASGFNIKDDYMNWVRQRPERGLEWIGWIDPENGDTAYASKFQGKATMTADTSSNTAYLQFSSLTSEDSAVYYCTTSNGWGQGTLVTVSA VL: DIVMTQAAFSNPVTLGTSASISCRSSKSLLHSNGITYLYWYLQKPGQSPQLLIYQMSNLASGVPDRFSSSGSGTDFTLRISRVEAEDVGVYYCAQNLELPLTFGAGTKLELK", "Obs Value": "108 % of control"}
{"Binder": "mouse 9F5 antibody (antibody, mouse IgG1, V domains shown, also called m9F5; murine 9F5) VH: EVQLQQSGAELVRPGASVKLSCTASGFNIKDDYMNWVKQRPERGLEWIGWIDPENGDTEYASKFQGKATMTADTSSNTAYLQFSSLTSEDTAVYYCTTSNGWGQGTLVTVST VL: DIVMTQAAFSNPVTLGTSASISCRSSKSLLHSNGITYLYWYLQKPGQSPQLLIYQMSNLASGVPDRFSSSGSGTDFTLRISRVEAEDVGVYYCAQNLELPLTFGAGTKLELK", "Obs Value": "91.4 % of control"}
